Entry source: ChEMBL document CHEMBL4219190

For each entry below, report its MFC value.
# Tested on: Candida albicans
# EXPERIMENTAL_PROTOCOL: Fungicidal activity against Candida albicans MTCC 854 incubated for 24 hrs followed by transfer of microbial suspension to Sabouraud dextrose agar plates and measured after 24 hrs post transfer
# Type: functional
# MEASUREMENT_SETUP: MTCC 854, 24 h

Hello, I would appreciate it if you could give MFC for each entry below.
1. Clc1ccc(COC(Cn2ccnc2)c2ccc(Cl)cc2Cl)c(Cl)c1 (stereo unspecified)
2. COc1ccc(-c2nc(C(=O)N3CCN(C)CC3)nc3nc(-c4ccccc4)cc(C(F)(F)F)c23)cc1
3. O=C(c1nc(-c2ccccc2)c2c(C(F)(F)F)cc(-c3ccccc3)nc2n1)N1CCN(CCO)CC1
4. O=C(c1nc(-c2ccccc2)c2c(C(F)(F)F)cc(-c3ccccc3)nc2n1)N1CCCC1

1: 15.6 µg/mL; 2: 31.2 µg/mL; 3: 15.6 µg/mL; 4: 15.6 µg/mL

Hello, I would appreciate it if you could give MFC for each entry below.
1. CN1CCN(C(=O)c2nc(-c3ccccc3)c3c(C(F)(F)F)cc(-c4ccccc4)nc3n2)CC1
2. CCCNC(=O)c1nc(-c2ccccc2)c2c(C(F)(F)F)cc(-c3ccccc3)nc2n1

["15.6 µg/mL", "62.5 µg/mL"]
